The values you see were collected from patent US12441726B2.

# IC50 per entry
molecular target: BRM (Homo sapiens); experiment: ATPase catalytic activity assay (ADP-Glo), BRM; conditions: BRM ATPase: IC50 (uM), 30 nM BRM, 400 μM ATP
Sequence (P51531 whole entry): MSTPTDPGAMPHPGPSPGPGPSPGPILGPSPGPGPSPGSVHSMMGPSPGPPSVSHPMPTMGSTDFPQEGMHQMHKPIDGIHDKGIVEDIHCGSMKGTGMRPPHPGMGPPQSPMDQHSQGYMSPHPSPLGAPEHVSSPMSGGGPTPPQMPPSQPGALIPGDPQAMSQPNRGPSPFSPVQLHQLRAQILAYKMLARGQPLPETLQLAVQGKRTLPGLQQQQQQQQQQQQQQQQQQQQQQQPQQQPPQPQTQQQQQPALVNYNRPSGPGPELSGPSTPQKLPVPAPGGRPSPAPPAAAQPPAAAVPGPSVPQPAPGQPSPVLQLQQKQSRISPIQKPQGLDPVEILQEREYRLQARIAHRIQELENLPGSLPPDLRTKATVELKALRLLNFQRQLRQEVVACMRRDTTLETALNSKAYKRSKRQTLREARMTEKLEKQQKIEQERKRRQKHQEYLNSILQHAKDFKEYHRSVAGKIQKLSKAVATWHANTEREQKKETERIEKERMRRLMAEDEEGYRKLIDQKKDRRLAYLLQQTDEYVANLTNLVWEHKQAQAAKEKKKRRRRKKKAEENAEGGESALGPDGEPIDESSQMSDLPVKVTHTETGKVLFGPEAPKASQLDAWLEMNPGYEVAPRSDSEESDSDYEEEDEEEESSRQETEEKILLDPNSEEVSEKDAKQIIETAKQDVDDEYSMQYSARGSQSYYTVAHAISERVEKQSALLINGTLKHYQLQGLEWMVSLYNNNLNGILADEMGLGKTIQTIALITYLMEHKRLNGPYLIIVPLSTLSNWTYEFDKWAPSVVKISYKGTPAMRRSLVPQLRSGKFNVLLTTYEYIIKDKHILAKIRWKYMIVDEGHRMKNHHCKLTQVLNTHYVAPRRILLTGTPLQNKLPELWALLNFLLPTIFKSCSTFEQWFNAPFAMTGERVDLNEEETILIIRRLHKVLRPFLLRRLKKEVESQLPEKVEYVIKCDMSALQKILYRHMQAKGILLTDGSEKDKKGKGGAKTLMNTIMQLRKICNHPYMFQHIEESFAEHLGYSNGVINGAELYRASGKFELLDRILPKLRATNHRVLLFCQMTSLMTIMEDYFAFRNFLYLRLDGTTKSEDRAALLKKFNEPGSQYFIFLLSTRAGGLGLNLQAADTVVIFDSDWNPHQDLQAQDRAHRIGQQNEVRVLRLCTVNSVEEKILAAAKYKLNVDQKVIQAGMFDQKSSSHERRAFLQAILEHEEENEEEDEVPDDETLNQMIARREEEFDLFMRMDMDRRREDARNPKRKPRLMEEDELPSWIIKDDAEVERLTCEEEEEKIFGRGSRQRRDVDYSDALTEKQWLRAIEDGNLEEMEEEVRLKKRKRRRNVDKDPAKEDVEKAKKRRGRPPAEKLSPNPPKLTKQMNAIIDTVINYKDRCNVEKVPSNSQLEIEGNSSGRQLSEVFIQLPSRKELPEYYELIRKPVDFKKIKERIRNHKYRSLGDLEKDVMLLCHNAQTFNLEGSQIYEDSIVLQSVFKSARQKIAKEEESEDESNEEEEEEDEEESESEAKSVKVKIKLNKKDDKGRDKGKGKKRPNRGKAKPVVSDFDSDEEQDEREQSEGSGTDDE

I would be grateful if you could share the reported IC50 for `C[C@@]1(C#N)COCc2ccc(C(=O)NCc3cc4cc(-c5ccnc(N6CCC6)n5)ccc4nn3)cc21` .
< 0.1 µM

New cases:
Give its IC50 value. Item: `C[C@@]1(C#N)COCc2ccc(C(=O)NCc3cc4nc(-c5cncc(N6CC[C@@H](F)C6)n5)ccc4cn3)cc21`
< 0.1 µM

What does the record list as IC50 for `C[C@@]1(F)COCc2ccc(C(=O)NCc3cc4cc(-c5cncc(N6CCC6)n5)ccc4cn3)cc21` ?
< 0.1 µM

Any idea what IC50 was measured for `C[C@@]1(C#N)COCc2ccc(C(=O)NCc3cc(/C=C/c4ccccc4)ccn3)cc21` ?
0.1 to 0.5 µM

----------
biological target: UniProtKB P51531; assay: ATPase catalytic activity assay (ADP-Glo), BRM; details: 30 nM BRM, 400 μM ATP
Attribute measured: BRM Max % Inhibition (%)

Query (compound): `CN1CCC(NC(=O)c2cccc(-c3ccc4cnc(CNC(=O)c5ccc6c(c5)[C@](C)(C#N)COC6)cc4n3)c2)CC1` ; field requested: BRM Max % Inhibition
100

Please give the measured BRM Max % Inhibition for this compound: `C[C@@]1(C#N)COCc2ccc(C(=O)NCc3cc4nc(-c5cc(F)c(=O)n(C(F)F)c5)ccc4cn3)cc21`
92

So what does the record say about BRM Max % Inhibition for `C[C@@]1(C#N)COCc2ccc(C(=O)NCc3cc(OCc4ccccc4)ccn3)cc21` ?
95

Dear colleague, I am looking for the recorded BRM Max % Inhibition of the following compound: `COC(=O)c1cccc(C#Cc2ccnc(CNC(=O)c3ccc4c(c3)[C@](C)(C#N)CCN4)c2)c1`
75

----------
biological target: BRM (Homo sapiens); assay: ATPase catalytic activity assay (ADP-Glo), BRM; conditions: 30 nM BRM, 400 μM ATP
Attribute measured: BRM Max % Inhibition (%)

Reported BRM Max % Inhibition, compound CN1C(=O)Cc2ccc(-c3ccc4cnc(CNC(=O)c5ccc6c(c5)[C@](C)(C#N)COC6)cc4n3)cc21 [Compound 476] : ____
94

Recorded BRM Max % Inhibition for C[C@@]1(F)COCc2ccc(C(=O)NCc3cc4nc(-c5ccccc5)ccc4nn3)cc21 [Compound 277] , please?
96

For the compound shown here, C[C@@]1(C#N)COCc2ccc(C(=O)NCc3cc(OCc4cccc(C#N)c4)ccn3)cc21 [Compound 65] , give the reported BRM Max % Inhibition.
90

For Cc1ccn(-c2ccc3cnc(CNC(=O)c4ccc5c(c4)[C@](C)(C#N)COC5)cc3n2)n1 [Compound 503] , what is its reported BRM Max % Inhibition?
94

Sample C[C@@]1(C#N)COCc2ccc(C(=O)NCc3cc(C4CN(c5ccccc5)C4)ccn3)cc21 [Compound 30] — what was its BRM Max % Inhibition?
92

Given the compound C[C@@]1(C#N)COCc2ccc(C(=O)NCc3cc4nc(-c5cccc(C6(C(F)F)COC6)c5)ccc4cn3)cc21 [Compound 194] , what is its reported BRM Max % Inhibition?
93

What BRM Max % Inhibition value was documented for this compound, Cn1c(C2CC2)cc2c(-c3ccc4cnc(CNC(=O)c5ccc6c(c5)[C@](C)(C#N)COC6)cc4n3)cccc21 [Compound 135] ?
103
